PROPERTY_NAME: melting point

The following compounds have reported results that may help.
[
  {
    "COMPOUND": "N#CC(C#N)(CCCSC(F)(F)F)CC(F)(F)C(F)(F)C(F)(F)C(F)(F)C(F)(F)F",
    "melting point": "88 to 90 °C"
  },
  {
    "COMPOUND": "CC12CCC3C(CCC4=CC(=O)CCC43C=O)C1CCC2O (stereo unspecified)",
    "melting point": "125 to 127 °C"
  },
  {
    "COMPOUND": "OCCc1ccc(-c2ccc(Cl)cc2)cc1",
    "melting point": "113 to 115 °C"
  }
]

API: the following record is the query input.
q: Supply recorded melting point for CC(C)(C)c1ccc(C(=O)Nc2cc(OCCCO/N=C/c3cn(Cc4ccccc4)c4ccccc34)ccc2C(=O)O)cc1 here.
a: 181 to 182 °C

----------
PROPERTY_NAME: melting point

// below: answered compounds
[
  {
    "COMPOUND": "O=C(O)C(=NOc1ccccc1)c1cccs1",
    "RESULT": "86 °C"
  },
  {
    "COMPOUND": "CC(=O)Nc1nc2c(Nc3ncnc4cc(Cl)ccc34)cccc2s1",
    "RESULT": "230 °C"
  },
  {
    "COMPOUND": "N#CC(c1ccc(C(O)C(Cc2cccc(OC(F)(F)C(F)F)c2)NC(=O)c2cccc3c2C=CCCC3)cc1)N1CCCCC1 (racemic)",
    "RESULT": "152 to 154 °C"
  },
  {
    "COMPOUND": "CCn1ncc2c(-c3cncc(C)c3)c(CCC(=O)O)c(-c3ocnc3C)nc21",
    "RESULT": "184 to 186 °C"
  },
  {
    "COMPOUND": "CC1CC(NC(=O)C(F)(F)F)=NN1c1ccc(Cl)cc1 (configuration not stated)",
    "RESULT": "170 to 172 °C"
  }
]

q: Specify measured melting point for CN(C(=O)C(F)(F)F)c1cnc(-c2cncc(F)c2)s1 .
a: 168 to 170 °C

q: Respond only with melting point recorded for O=C(NC1CCCCC1)NS(=O)(=O)c1ccc(CCn2cnc3ccccc3c2=O)cc1
a: 228 to 230 °C

----------
PROPERTY_NAME: melting point

Record excerpt, results attached:
[
  {
    "CHEMICAL_STRUCTURE": "CC(=O)NNc1nc(C(F)(F)F)nc(-c2ccc(F)cc2)c1-c1ccccc1",
    "PROPERTY_NAME": "melting point",
    "RESULT": "149 to 153 °C"
  },
  {
    "CHEMICAL_STRUCTURE": "CCOC(=O)c1cnc2c(OC)cccc2c1Nc1cscc1OC",
    "PROPERTY_NAME": "melting point",
    "RESULT": "176 to 178 °C"
  },
  {
    "CHEMICAL_STRUCTURE": "COC(=O)c1cccc([N+](=O)[O-])c1I",
    "PROPERTY_NAME": "melting point",
    "RESULT": "64 to 64.5 °C"
  }
]

q: Query melting point for O=C1c2cc([N+](=O)[O-])cc3c(N4CCCC4)c(Cl)cc(c23)C(=O)N1O
a: 209 to 210 °C

q: Quick one: give measured melting point for C[C@H](c1ccccc1)n1c(=O)c2c(N3CCNCC3)cc(Cl)cc2n(Cc2ccccc2)c1=O
a: 91 to 96 °C

q: Give recorded melting point. CC(C)(C)NC(=O)[C@@H]1CCCN1C(=O)[C@@H](O)[C@H](Cc1ccccc1)N(Cc1ccccc1)Cc1ccccc1
a: 122 to 123 °C

q: Entry c1c[nH]c(C(c2ccc[nH]2)C23CC4CC(C2)CC(C(c2ccc[nH]2)c2ccc[nH]2)(C4)C3)c1 needs its melting point filled in; supply it.
a: 110 to 112 °C
